Target: human TGR5 (Homo sapiens, UniProt Q8TDU6)
Construct: expressed in transfected cells; host or cells: HEK293
Sequence (Q8TDU6 whole entry): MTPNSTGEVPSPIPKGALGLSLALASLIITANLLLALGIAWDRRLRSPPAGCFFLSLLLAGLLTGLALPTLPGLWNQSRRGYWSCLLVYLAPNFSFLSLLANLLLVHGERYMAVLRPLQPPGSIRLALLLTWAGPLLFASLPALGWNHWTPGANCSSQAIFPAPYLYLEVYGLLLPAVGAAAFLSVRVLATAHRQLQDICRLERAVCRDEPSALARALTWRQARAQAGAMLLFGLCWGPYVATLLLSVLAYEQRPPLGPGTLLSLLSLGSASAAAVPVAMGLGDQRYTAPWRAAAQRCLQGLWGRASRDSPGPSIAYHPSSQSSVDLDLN
Experiment: Cell-based TGR5 assay (cAMP generation, HTRF)
Conditions: HEK293 cells stably transfected with human TGR5; cAMP by HTRF; 30 minutes at 37° C.; read-out: pEC50 Human TGR5 (converted)
Item-by-item account of EC50

CC(C)N(CCCCNC(=O)NC[C@H](O)[C@@H](O)[C@H](O)[C@H](O)CO)S(=O)(=O)c1ccc(Cl)c(COC2(c3cnccc3-c3ccccc3OC3CC3)CCOC2)c1 (stereo partly shown) [Compound I-750]
< 100 nM
O=C(NCCCCCSc1ccc(Cl)c(COC2(c3cnccc3-c3ccccc3OC3CC3)CC2)c1)NCCCCNC(=O)NC[C@H](O)[C@@H](O)[C@H](O)[C@H](O)CO [Compound I-627]
< 100 nM
COCCN(C[C@H](O)[C@@H](O)[C@H](O)[C@H](O)CO)C(=O)CCCSc1ccc(Cl)c(COC2(c3cnccc3-c3ccccc3OC3CC3)CC2)c1 [Compound I-664]
< 100 nM
Cc1ccc(C(C)CCCC(=O)O)cc1CNC1(c2cnccc2-c2ccccc2OC2CC2)CC1 (single isomer, unassigned) [Compound I-253]
< 100 nM
O=C(NCCCCNC(=O)NC[C@H](O)[C@@H](O)[C@H](O)[C@H](O)CO)NCCCCSc1ccc(Cl)c(COC2(c3cnccc3-c3ccccc3OC3CC3)CC2)c1 [Compound I-629]
< 100 nM

Query: For CN(C[C@H](O)[C@@H](O)[C@H](O)[C@H](O)CO)C(=O)CCCCc1ccc(Cl)c(CNC2(c3cnccc3-c3ccccc3OC3CC3)CC2)c1 (stereo in doubt) [Compound I-234] , what is its reported EC50?
Result: < 100 nM

Query: For Cc1ccc(S(=O)(=O)N(C)CCCCNC(=O)NC[C@H](O)[C@@H](O)[C@H](O)[C@H](O)CO)cc1COC1(c2cnccc2-c2ccccc2OC2CC2)CC1 [Compound I-479] , what is its reported EC50?
Result: < 100 nM
